Assay: solvent given as SMILES
Settings: in CN(C)C=O
Property name: fluorescence lifetime (ns)
Note: unit ns is implicit; provide only the numeric part.

Entry under test: CCN(CC)c1ccc2c(-c3ccc(S(=O)(=O)O)cc3S(=O)(=O)[O-])c3ccc(=[N+](CC)CC)cc-3oc2c1 . Its fluorescence lifetime was 2.91

Entry under test: CN(C)c1ccc(/C=C/C=C2\CC/C(=C\C=C\c3ccc(N(C)C)cc3)C2=O)cc1 . Its fluorescence lifetime was 0.67

---
Entry under test: CSc1nc(-c2ccc(-n3c4ccccc4c4ccccc43)cc2)cc(-c2ccc(-n3c4ccccc4c4ccccc43)cc2)n1 . Its fluorescence lifetime was 7.39

Entry under test: CCN(CC)c1ccc2cc(/C=C/C(=C(C#N)C#N)c3ccc4c(c3)c3ccccc3n4CC)c(=O)oc2c1 . Its fluorescence lifetime was 4.81

Entry under test: NS(=O)(=O)c1ccc(N2N=C(c3ccc(O)cc3)CC2c2ccc(F)cc2)cc1 (stereo not drawn) . Its fluorescence lifetime was 2.45

Entry under test: O=C1c2ccc3c4ccc5c6c(ccc(c7ccc(c2c37)C(=O)N1c1ccncc1)c64)C(=O)N(c1ccncc1)C5=O . Its fluorescence lifetime was 1.69

Entry under test: CCCCCCOc1ccc(C#Cc2ccc(C#CC#Cc3ccc(C#Cc4ccc(OCCCCCC)c(OCCCCCC)c4)c4nsnc34)c3nsnc23)cc1OCCCCCC . Its fluorescence lifetime was 0.5

Entry under test: Cc1cc(-c2ccc(-n3c4ccccc4c4ccccc43)cc2)nc(-c2ccc(-c3ccccc3)cc2)n1 . Its fluorescence lifetime was 6.66

----------
Assay: solvent given as SMILES
Conditions: in Cc1ccccc1
Listed here: items and their measured fluorescence lifetime.
Note: unit ns is implicit; provide only the numeric part.

Entry under test: COc1ccc(N(c2ccc(/C=C(\C)c3ccccc3)cc2)c2ccc(/C=C(\C)c3ccccc3)cc2)cc1 . Its fluorescence lifetime was 1.5

---
Entry under test: COc1ccc2c(c1)c1cc(OC)ccc1n2-c1ccc(S(=O)(=O)c2ccc(-n3c4ccc(OC)cc4c4cc(OC)ccc43)cc2)cc1 . Its fluorescence lifetime was 11

Entry under test: c1cc2ccc3ccc4cc3c2cc1c1ccc2ccc3ccc(cc3c2c1)c1ccc2ccc3ccc4cc3c2c1 . Its fluorescence lifetime was 6.5

Entry under test: COc1ccc(C2=C3C(C)=CC(C=Cc4ccc(C(=O)OC5C[C@H]6CCC5(C)C6(C)C)cc4)=[N+]3[B-](F)(F)n3c(/C=C/c4ccc(C(=O)OC5CC6CCC5(C)C6(C)C)cc4)cc(C)c32)cc1 (stereo partly specified) . Its fluorescence lifetime was 2.6

----------
Listed here: items and their measured fluorescence lifetime.
Assay: solvent given as SMILES
Details: in CS(C)=O
Note: unit ns is implicit; provide only the numeric part.

Entry under test: c1ccc(-c2nc(-c3ccc(-c4nc(-c5ccccc5)c(-c5ccccc5)[nH]4)cc3)[nH]c2-c2ccccc2)cc1 . Its fluorescence lifetime was 1.05

Entry under test: CN(C)c1ccc(/C=C/C=C2\CC/C(=C\c3ccc(N(C)C)cc3)C2=O)cc1 . Its fluorescence lifetime was 1.4

Entry under test: COc1cc(/C=C/C(=O)CC(=O)/C=C/c2ccc(O)c(OC)c2)ccc1O . Its fluorescence lifetime was 0.196

Entry under test: COc1cc2c(cc1/C=C/C(=C(C#N)C#N)c1ccccc1)c1ccccc1n2C . Its fluorescence lifetime was 9.07

Entry under test: O=c1c2cc(S(=O)(=O)Cl)ccc2[nH]c2ccc(S(=O)(=O)Cl)cc12 . Its fluorescence lifetime was 10.8

Entry under test: COc1ccc(-c2nc3c(c4c2-c2ccccc2CC4)-c2ccccc2CC3)cc1 . Its fluorescence lifetime was 0.67

Entry under test: COc1ccc2c3c([nH]c2c1)C(C)=NCC3 . Its fluorescence lifetime was 2.91

Entry under test: CN1C(=CC=Cc2nc3nc4ccccc4nc3s2)C(C)(C)c2ccccc21 . Its fluorescence lifetime was 1.04

Entry under test: CN(C)c1ccc2cc3c(cc2c1)OCCN=C3 . Its fluorescence lifetime was 4.4

Entry under test: O=S(=O)([O-])CCCCN1C=C/C(=C/C=C/C=C/c2cc[n+](CCCCS(=O)(=O)[O-])c3ccccc23)c2ccccc21 . Its fluorescence lifetime was 0.36

----------
Assay: solvent given as SMILES
Conditions: in CCOC(C)=O
Threshold 1 ns: fluorescence lifetime strictly smaller gives rule met, otherwise rule not met.

Previously resolved entries follow.
Request: Determine if CCN(CC)c1ccc2cc(/C=C/C(=C(C#N)C#N)c3ccc4c(c3)c3ccccc3n4CC)c(=O)oc2c1 shows fluorescence lifetime strictly lower than 1 ns.
Result: rule not met

Request: Determine if COC(=O)C(Cc1ccc2oc(-c3ccc4c(c3)c3ccccc3n4-c3ccccc3)nc2c1)NC(=O)OC(C)(C)C (configuration not stated) shows fluorescence lifetime strictly lower than 1 ns.
Result: rule not met

---
Request: Determine if NNC(=O)NNN1C(=O)c2cc(S(=O)(=O)[O-])cc3c(N)c(S(=O)(=O)[O-])cc(c23)C1=O shows fluorescence lifetime strictly lower than 1 ns.
Result: rule not met

Request: Determine if COc1cc(OC)cc(-c2ccc(-c3ccc(C#N)s3)s2)c1 shows fluorescence lifetime strictly lower than 1 ns.
Result: rule met

Request: Determine if [C-]#[N+]c1ccc(-c2ccc(NC)cc2)cc1 shows fluorescence lifetime strictly lower than 1 ns.
Result: rule not met

Request: Determine if CCCN1C(=O)c2c3c(c4c(c2C1=O)CCc1cc(-c2ccc(N(C)C)cc2)c(OC)cc1-4)-c1cc(OC)c(-c2ccc(N(C)C)cc2)cc1CC3 shows fluorescence lifetime strictly lower than 1 ns.
Result: rule met

Request: Determine if Cc1c2oc3c(C)c(N)cc(C(=O)NC4OC(=O)C(C(C)C)N(C)C(=O)CN(C)C(=O)C5CCCN5C(=O)C(C(C)C)NC4=O)c3nc-2c(C(=O)NC2OC(=O)C(C(C)C)N(C)C(=O)CN(C)C(=O)C3CCCN3C(=O)C(C(C)C)NC2=O)c(N)c1=O (configuration not stated) shows fluorescence lifetime strictly lower than 1 ns.
Result: rule not met

----------
Test: solvent given as SMILES
Settings: in C1COCCO1
Listed here: items and their measured fluorescence lifetime.
Note: unit ns is implicit; provide only the numeric part.

Check out these entries, answers already filled in.
Entry under test: NS(=O)(=O)c1ccc(N2N=C(c3ccc(O)cc3)CC2c2ccccc2)cc1 (centres undefined) . Its fluorescence lifetime was 2.36

Entry under test: COC(=O)C(Cc1ccc2oc(-c3ccc(N(C)c4ccccc4)cc3)nc2c1)NC(=O)OC(C)(C)C (centres undefined) . Its fluorescence lifetime was 4.14

Entry under test: CCC1=C(C)C2=C(C)c3c(C)c(CC)c(C)n3[B-](F)(F)[N+]2=C1C . Its fluorescence lifetime was 5.48

Entry under test: c1ccc(-c2nc(-c3ccc(-c4ccc(-c5ccc(-c6nc(-c7ccccc7)c(-c7ccccc7)o6)cc5)cc4)cc3)oc2-c2ccccc2)cc1 . Its fluorescence lifetime was 0.78

Entry under test: COc1nc(Nc2ccc3cc4ccccc4cc3c2)nc(OC)n1 . Its fluorescence lifetime was 12.2

Entry under test: C(/C=C/c1ccc(-n2c3ccccc3c3ccccc32)cc1)=C\c1ccncc1 . Its fluorescence lifetime was 1.32

Entry under test: C(/C=C/c1cc2c3c(c1)CCCN3CCC2)=C\c1ccncc1 . Its fluorescence lifetime was 0.25

Entry under test: N#Cc1ccc2cc[nH]c2c1 . Its fluorescence lifetime was 3.9

--- query ---
Entry under test: CCCCCCCCCCCCCCCCOc1cc(C#Cc2ccc3ccccc3c2)c(OCCCCCCCCCCCCCCCC)cc1C#Cc1ccc(C=C(C#N)C#N)cc1 . Its fluorescence lifetime was 3.1

----------
Assay: solvent given as SMILES
Conditions: in Cc1ccccc1
Listed here: items and their measured fluorescence lifetime.
Note: unit ns is implicit; provide only the numeric part.

Check out these entries, answers already filled in.
Entry under test: O=C1C(=c2c(=O)c3c4ccccc4cc4cc5ccccc5c2c43)C(=O)c2ccccc21 . Its fluorescence lifetime was 11.3

Entry under test: CCN(CC)c1ccc2cc(/C=C/C(=C(C#N)C#N)c3ccc4c(c3)c3ccccc3n4CC)c(=O)oc2c1 . Its fluorescence lifetime was 1.15

Entry under test: Cc1ccc(C2=[N+]3C(=Cc4c(C)cc(C)n4[B-]3(F)F)c3ccccc32)[nH]1 . Its fluorescence lifetime was 6.17

Entry under test: CCCCCCN(CCCCCC)c1ccc(C#Cc2ccc(C#Cc3ccc(-c4ccc(C#Cc5ccc(C#Cc6ccc(N(CCCCCC)CCCCCC)cc6)cc5)cc4)cc3)cc2)cc1 . Its fluorescence lifetime was 0.8

Entry under test: CCN1C(=O)C(C2C(=O)c3c4ccccc4cc4cc5ccccc5c2c34)C(=O)N(CC)C1=S (stereo not drawn) . Its fluorescence lifetime was 12.4

Entry under test: O=C1c2ccccc2C(=O)c2cc(-c3ccc(N(c4ccccc4)c4ccccc4)cc3)ccc21 . Its fluorescence lifetime was 6.79

Entry under test: COc1ccc(C2=C3C(C)=CC(C)=[N+]3[B-](F)(F)n3c(/C=C/c4ccc(N(C)C)cc4)cc(C)c32)cc1 . Its fluorescence lifetime was 3.25

Entry under test: COc1ccc(/C=C/C=C/C=C/c2ccc([N+](=O)[O-])cc2)cc1 . Its fluorescence lifetime was 1.5

Entry under test: COc1ccc2c3cccc4c(OC)ccc(c5cccc1c52)c43 . Its fluorescence lifetime was 3.6

Entry under test: FC(F)(F)c1cc2n(n1)[B-]1(c3ccccc3-c3ccccc31)[n+]1ccc3ccccc3c1-2 . Its fluorescence lifetime was 1.22

--- query ---
Entry under test: COc1ccc2c(=O)c3c([nH]c2c1)-c1ccccc1NC3(C)C . Its fluorescence lifetime was 7.24
